Assay: in vitro
Details: human, Caco-2
quantityName: Papp A→B at 2 h, 1 µM (nm/s)

(a) COC1CN(C(=O)c2ccc3c(N)ncc(-c4ccc(-c5cnn(C)c5)cc4)c3n2)C1
(b) Cn1cc(-c2ccc(-c3cnc(N)c4ccc(C(=O)N5CCNCC5)nc34)cc2)cn1
Q. Looking only at measured Papp A→B at 2 h, 1 µM, which entry is lower, a or b ? Lab log: write the label of the selected item as the result.
A. b

----------
Assay: in vitro
Details: human, Caco-2
quantityName: Papp A→B at 2 h, 1 µM (×10⁻⁶ cm/s)

Example compounds with recorded Papp A→B at 2 h, 1 µM:
Cn1cc(-c2ccc(-c3cnc(N)c4ccc(C(=O)N5CCC5)nc34)cc2)cn1 42.6
Cn1cc(-c2ccc(-c3cnc(N)c4ccc(C(=O)N5CC(F)(F)C5)cc34)cc2)cn1 39.7
Cn1cc(-c2ccc(-c3cnc(N)c4ccc(C(=O)N5CCC5)cc34)cc2)cn1 27.2

(I) Cn1cc(-c2ccc(-c3cnc(N)c4ccc(C(=O)N5CCOCC5)nc34)cc2)cn1
(II) Cn1cc(-c2ccc(-c3cnc(N)c4ccc(N5CCOC5=O)cc34)cc2)cn1
Q. Please indicate which entry, I or II , has the lower recorded Papp A→B at 2 h, 1 µM value. Mark your answer with the label of the selected entry.
A. II
(II: 20.6 ×10⁻⁶ cm/s, I: 34 ×10⁻⁶ cm/s)

(I) COC1(C)CN(C(=O)c2ccc3c(N)ncc(-c4ccc(-c5cnn(C)c5)cc4)c3c2)C1
(II) COC1(C)CN(C(=O)c2ccc3c(N)ncc(-c4ccc(-c5cnn(C)c5)cc4)c3n2)C1
Q. // compare measured Papp A→B at 2 h, 1 µM, left I , right II , return larger Answer by stating the label of the chosen item.
A. II
